// values below are reported SPOT intensity
# measured.target: Bem1-2, P29366
# Sequence (P29366 139-227): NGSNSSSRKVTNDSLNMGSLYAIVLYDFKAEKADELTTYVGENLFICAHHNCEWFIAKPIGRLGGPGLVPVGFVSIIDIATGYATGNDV
# method: SPOT array
# condition.set: median of control spots 4347
endpoint.label: SPOT intensity

binder	endpoint.label	quantitative.readout
HGKRRAPLLLAKLDV	SPOT intensity	0
SGVRLPAPPPPPRRG	SPOT intensity	0
FLIKFTPKFPQSIDH	SPOT intensity	0
